measurement notes: decrease of insulin promoter-GFP reporter – imaging, high-content screening, mouse beta cells (AID 1628)
applied conditions: MIN6 insulin promoter GFP reporter, at 5 µM, hits give low values
In all, about 190,000 compounds went through this assay and about 930 (0.49%) were called active. This is one part of the list. Measured potencies and affinities stand elsewhere.
Grouping key: z-score. Bins: range 1: < -4; range 2: ≥ -4 and < 2; range 3: ≥ 2

Worked examples, 4 compounds total:
Query :: State the class of the compound shown: OC1(c2cccc(C(F)(F)F)c2)CCN(c2ncnc3c2[nH]c2ccc(F)cc23)CC1
Result :: range 1

Query :: State the class of the compound shown: COCCNC(=O)c1ccc2ccccc2n1
Result :: range 2

Query :: State the class of the compound shown: COc1ccc(OCC(=O)Nc2ccccc2C(=O)N2CCOCC2)cc1
Result :: range 2

Query :: State the class of the compound shown: Clc1ccccc1CN(Cc1ccccc1)C(c1cccs1)c1nnnn1C1CCCC1 (stereo unspecified)
Result :: range 1

More entries:
Query :: State the class of the compound shown: COc1cccc(N2CCN(c3ncnc4c3[nH]c3ccc(F)cc34)CC2C)c1 (stereo unspecified)
Result :: range 2

Query :: State the class of the compound shown: CCN(CC)CCCOC(=O)C(c1ccccc1)c1ccccc1
Result :: range 2

Query :: State the class of the compound shown: CC(C)C(c1nnnn1C1CCCC1)N1CCOCC1 (stereo unspecified)
Result :: range 3

Query :: State the class of the compound shown: CCn1c(C2CC(=O)N(Cc3ccccc3)C2)nc2ccccc21 (stereo unspecified)
Result :: range 1

* * *

measurement notes: decrease of insulin promoter-GFP reporter – imaging, high-content screening, mouse beta cells (AID 1628)
applied conditions: MIN6 insulin promoter GFP reporter, at 5 µM, hits give low values
About 930 (0.49%) of roughly 190,000 compounds were called active. The list shows a part of the results. Results with a measured potency or affinity are listed apart.
attribute measured: z-score
Give bare numbers.

Query :: So what does the record say about z-score for CC(C)NC(=O)N1CCN(c2ccncc2S(=O)(=O)N2CCOCC2)CC1 ?
Result :: 5.83

Query :: So what does the record say about z-score for Cc1ccc(Cn2c(=N)n(CC(O)c3ccco3)c3ccccc32)cc1 (stereo not given) ?
Result :: -11.4

Query :: So what does the record say about z-score for Cc1ccc(N2C(=O)c3cccc4c(N5CCN(C)CC5)ccc(c34)C2=O)c2cccnc12 ?
Result :: 5.89

Query :: So what does the record say about z-score for OC(COc1cccc2ccccc12)CN1CCN(c2ccccc2Cl)CC1 (stereo not given) ?
Result :: 3.51

Query :: So what does the record say about z-score for Cc1ccccc1-n1c(=O)c2ccccc2n(CC(=O)NCc2ccco2)c1=O ?
Result :: 3.06

Query :: So what does the record say about z-score for O=C(c1csc2ccccc12)N1CCCCCC1 ?
Result :: -4.36

Respectfully, I request z-score for each entry included below.
1. O=S(=O)(c1ccc(OCC(O)CN2CCN(c3ccc(F)cc3)CC2)cc1)N1CCOCC1 (stereo not given)
2. COc1ccccc1N1CCN(CC(O)COc2ccc(S(=O)(=O)N3CCOCC3)cc2)CC1 (stereo not given)

Result ::
[-4.17, -3.8]

Respectfully, I request z-score for each entry included below.
1. Cc1ccccc1C(=O)N1CCc2ccccc2C1
2. Cc1ccnc(N2C(=O)c3cccc4c([N+](=O)[O-])ccc(c34)C2=O)c1

Result ::
1: 3.99; 2: 3.14
